target: P-gp (Homo sapiens, UniProt P08183); construct: endogenous in cells; host or cells: CaCO2 (Caco-2) cells, 21-day transwell monolayer; experiment: Permeability study in CaCO2 cells, efflux ratio by P-gp; type: in vitro ADME; conditions: human, Caco-2; 50 μM, CaCO2 cells; read-out: Efflux ratio (B→A/A→B)
Sequence (P08183 whole entry): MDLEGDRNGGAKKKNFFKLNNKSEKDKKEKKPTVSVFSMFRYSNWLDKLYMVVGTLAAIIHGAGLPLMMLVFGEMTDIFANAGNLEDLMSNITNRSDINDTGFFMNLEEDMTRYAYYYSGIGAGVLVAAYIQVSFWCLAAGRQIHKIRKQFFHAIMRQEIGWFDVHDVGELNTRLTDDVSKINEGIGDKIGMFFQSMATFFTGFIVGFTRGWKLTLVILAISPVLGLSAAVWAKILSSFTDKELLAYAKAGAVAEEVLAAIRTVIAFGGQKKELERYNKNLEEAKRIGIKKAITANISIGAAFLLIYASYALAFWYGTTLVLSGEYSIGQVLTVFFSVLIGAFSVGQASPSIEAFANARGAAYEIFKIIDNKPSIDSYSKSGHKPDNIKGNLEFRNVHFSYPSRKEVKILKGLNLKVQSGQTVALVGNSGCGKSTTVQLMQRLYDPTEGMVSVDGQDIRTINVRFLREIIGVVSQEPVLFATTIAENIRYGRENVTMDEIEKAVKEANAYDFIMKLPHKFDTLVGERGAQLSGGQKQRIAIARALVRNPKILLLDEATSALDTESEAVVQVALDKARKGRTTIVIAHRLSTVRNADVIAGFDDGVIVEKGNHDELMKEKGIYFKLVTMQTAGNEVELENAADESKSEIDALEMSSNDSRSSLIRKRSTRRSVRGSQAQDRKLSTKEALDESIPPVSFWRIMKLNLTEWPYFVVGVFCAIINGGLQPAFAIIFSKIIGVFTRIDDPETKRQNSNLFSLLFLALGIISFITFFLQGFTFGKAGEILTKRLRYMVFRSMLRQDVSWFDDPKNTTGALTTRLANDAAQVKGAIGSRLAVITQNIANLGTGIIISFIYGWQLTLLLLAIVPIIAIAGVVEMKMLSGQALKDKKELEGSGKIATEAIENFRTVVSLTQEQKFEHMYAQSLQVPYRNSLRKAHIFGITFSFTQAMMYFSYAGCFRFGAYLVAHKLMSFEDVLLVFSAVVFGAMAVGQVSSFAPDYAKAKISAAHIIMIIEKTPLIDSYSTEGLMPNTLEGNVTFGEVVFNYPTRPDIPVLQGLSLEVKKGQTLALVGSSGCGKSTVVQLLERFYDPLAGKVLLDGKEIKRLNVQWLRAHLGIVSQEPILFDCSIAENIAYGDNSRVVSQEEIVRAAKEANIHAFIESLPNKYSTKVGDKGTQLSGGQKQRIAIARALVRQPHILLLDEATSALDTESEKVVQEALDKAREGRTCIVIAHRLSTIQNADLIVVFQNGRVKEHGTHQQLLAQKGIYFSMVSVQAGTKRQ
VALUE_TYPE: efflux ratio at 50 μM

# COMPOUND, VALUE_MEASURED
measured = [
    ("N#Cc1ccc(N2CCN(Cc3ccc4c5c(c(=O)[nH]c4c3)CCCN5)CC2)nc1 [citrate of the compound of Formula I]", 1.04),
]

---

biological target: P-gp (Homo sapiens, UniProt P08183); construct: endogenous in cells; host or cells: CaCO2 (Caco-2) cells, 21-day transwell monolayer; assay: Permeability study in CaCO2 cells, efflux ratio by P-gp; assay type: in vitro ADME; conditions: human, Caco-2; 1 μM, CaCO2 cells
VALUE_TYPE: Papp A→B at 180 min, 1 μM (×10⁻⁶ cm/s)

# COMPOUND, VALUE_MEASURED
records = [
    ("N#Cc1ccc(N2CCN(Cc3ccc4c5c(c(=O)[nH]c4c3)CCCN5)CC2)nc1 [citrate of the compound of Formula I]", 19.8),
]
